Catalogue of pIC50 values
molecular target: Epidermal growth factor receptor (Homo sapiens, UniProt P00533); test: Inhibition of wild type EGFR in human A-431 cells preincubated for 4 to 5 hrs followed by EGF stimulation for 10 mins by AlphaLISA method; assay type: cell-based
Sequence (P00533 whole entry): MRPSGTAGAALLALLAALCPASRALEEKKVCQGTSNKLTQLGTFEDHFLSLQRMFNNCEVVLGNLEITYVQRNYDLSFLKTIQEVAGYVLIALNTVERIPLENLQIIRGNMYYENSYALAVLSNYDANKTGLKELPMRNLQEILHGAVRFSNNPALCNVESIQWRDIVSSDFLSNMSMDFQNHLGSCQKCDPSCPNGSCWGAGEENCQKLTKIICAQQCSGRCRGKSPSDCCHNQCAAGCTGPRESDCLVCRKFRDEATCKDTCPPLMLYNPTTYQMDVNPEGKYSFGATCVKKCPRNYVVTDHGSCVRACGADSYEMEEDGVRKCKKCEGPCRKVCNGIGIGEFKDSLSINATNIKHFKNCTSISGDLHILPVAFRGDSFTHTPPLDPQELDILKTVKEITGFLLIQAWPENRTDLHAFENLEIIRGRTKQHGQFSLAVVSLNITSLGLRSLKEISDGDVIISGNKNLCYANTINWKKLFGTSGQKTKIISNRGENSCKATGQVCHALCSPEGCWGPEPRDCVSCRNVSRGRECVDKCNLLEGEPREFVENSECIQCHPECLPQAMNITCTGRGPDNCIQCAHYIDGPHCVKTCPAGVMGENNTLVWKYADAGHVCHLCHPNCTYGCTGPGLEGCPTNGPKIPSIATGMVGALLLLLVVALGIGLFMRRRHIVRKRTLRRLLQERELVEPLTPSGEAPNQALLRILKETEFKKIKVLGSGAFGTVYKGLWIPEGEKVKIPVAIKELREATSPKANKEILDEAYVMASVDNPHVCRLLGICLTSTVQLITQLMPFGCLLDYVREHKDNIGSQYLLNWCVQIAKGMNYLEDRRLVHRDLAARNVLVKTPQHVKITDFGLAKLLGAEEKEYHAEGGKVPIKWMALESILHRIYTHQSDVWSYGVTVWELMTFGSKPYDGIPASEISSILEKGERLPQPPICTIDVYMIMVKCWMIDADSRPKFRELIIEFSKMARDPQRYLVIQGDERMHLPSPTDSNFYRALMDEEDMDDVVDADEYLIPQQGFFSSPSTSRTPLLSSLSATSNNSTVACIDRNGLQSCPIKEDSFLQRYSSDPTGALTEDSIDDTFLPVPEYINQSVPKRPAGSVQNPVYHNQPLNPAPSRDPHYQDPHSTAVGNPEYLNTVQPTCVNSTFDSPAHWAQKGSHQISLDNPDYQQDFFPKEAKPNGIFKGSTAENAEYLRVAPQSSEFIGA
pIC50: −log10 of the molar value.

Below are worked cases with known answers.
INSERT INTO results (smiles_data, experimental_result) VALUES
  ('CNc1ncc(C(C)C)c2cc(Nc3ccnc(N4CC[C@@H](O)[C@@H](F)C4)n3)ncc12', '< 4.60'),
  ('CNC(=O)c1cnc(Nc2ccnc(N3CCC(O)CC3)n2)cc1NC(C)C', '< 4.60');

// pIC50 value for "CNC(=O)c1cnc(Nc2ccnc(N3CC[C@@H](O)[C@@H](F)C3)n2)cc1NC(C)C" : < 4.60
